- Tested on: PPARg homodimer (NR concentration 180 nM)
- assay_text: PBM binding z-score (relative to random genomic background probes); higher = stronger binding; sequences stand for … in GC…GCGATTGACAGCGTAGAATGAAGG
# if value of PBM binding z-score reaches 1, tag label 1; if it stays below, tag label 0

# monomer_sequence, measured_on, classification
records = [
    ("CCGACTGGTGCAAAGGTTACCATACTCAGTACGA", "PPARg homodimer (NR concentration 180 nM)", "label 1"),
    ("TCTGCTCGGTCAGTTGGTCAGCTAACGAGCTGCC", "PPARg homodimer (NR concentration 180 nM)", "label 0"),
    ("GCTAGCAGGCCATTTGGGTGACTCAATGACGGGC", "PPARg homodimer (NR concentration 180 nM)", "label 0"),
]

[Q] Is reported PBM binding z-score greater than or equal to 1 here: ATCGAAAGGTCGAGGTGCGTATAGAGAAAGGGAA
[A] label 1

[Q] One more sequence: CCTCGGAGGACAGAAGGTCAGACCTGTCCGCTTT
[A] label 1

[Q] Next: TCCGCTAGGTCAGTTGGTCAGCTAACGAGCTGCC
[A] label 0

[Q] Note, next up: CCTCGGAGGACAACAGGAGGTCAGGGCTGCCAGA
[A] label 1

----------
- Tested on: VDR homodimer (NR concentration 270 nM)
- assay_text: PBM binding z-score (relative to random genomic background probes); higher = stronger binding; sequences stand for … in GC…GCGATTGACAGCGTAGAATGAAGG
If the reported PBM binding z-score equals or exceeds 1, assign YES. If not, assign NO.

Example entries begin here.
# monomer_sequence, measured_on, classification
records = [
    ("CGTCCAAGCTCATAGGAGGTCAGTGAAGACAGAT", "VDR homodimer (NR concentration 270 nM)", "NO"),
    ("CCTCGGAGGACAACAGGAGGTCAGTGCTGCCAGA", "VDR homodimer (NR concentration 270 nM)", "YES"),
    ("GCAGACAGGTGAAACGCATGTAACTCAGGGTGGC", "VDR homodimer (NR concentration 270 nM)", "NO"),
    ("TCTAGTTGGTCACGGATGTCACACACGACGGGTA", "VDR homodimer (NR concentration 270 nM)", "NO"),
    ("ACTAGCAGGCAAAGTTTGGGTCACTCAAACAAAG", "VDR homodimer (NR concentration 270 nM)", "NO"),
]

[Q] Say whether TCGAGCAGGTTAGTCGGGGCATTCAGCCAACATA shows PBM binding z-score of 1 or more.
[A] NO

[Q] Now consider CCTTACGGGTCAAGGATATAGCACGGGTGGTACG and answer again.
[A] NO

[Q] Follow-up item: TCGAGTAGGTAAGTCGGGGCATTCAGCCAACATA
[A] NO

[Q] Could you do the same for TCTCGGAGGACACGAAAGGTCAGAGCACGACATC , please?
[A] YES

[Q] Would you mind doing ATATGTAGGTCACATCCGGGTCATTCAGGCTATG as well?
[A] YES

[Q] // same read-out, input: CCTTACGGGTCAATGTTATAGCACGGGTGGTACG
[A] NO

[Q] And the next one, CCTATTAGTTGACCATAAGGGCAACCGAAGCTCG ?
[A] YES

[Q] // repeat for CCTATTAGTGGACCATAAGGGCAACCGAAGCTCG and report
[A] NO

[Q] Same again, this time with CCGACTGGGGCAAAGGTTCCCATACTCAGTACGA
[A] NO

[Q] Next entry: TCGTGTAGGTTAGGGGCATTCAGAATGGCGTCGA
[A] NO

[Q] Cool, now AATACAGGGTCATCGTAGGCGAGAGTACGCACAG
[A] YES

[Q] Now consider AGAACGAGGGCAATGAGTTGATTGCACGGGTGGC and answer again.
[A] YES

[Q] Could you do the same for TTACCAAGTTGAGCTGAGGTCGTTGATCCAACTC , please?
[A] YES

[Q] Next up: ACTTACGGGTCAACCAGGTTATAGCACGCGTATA
[A] YES

[Q] Param item: CCGACTGGAGCAAAGGTTACCATACTCAGTACGA
[A] NO

[Q] Another sequence to look at: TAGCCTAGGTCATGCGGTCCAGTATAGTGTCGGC
[A] YES

[Q] Let us now turn to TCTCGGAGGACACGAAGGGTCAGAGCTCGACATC
[A] NO

[Q] Would you mind doing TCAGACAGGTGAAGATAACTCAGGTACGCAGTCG as well?
[A] NO

[Q] Record: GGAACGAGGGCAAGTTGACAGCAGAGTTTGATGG
[A] YES

[Q] Further, for AGTCAAAGTTCACTAGGTAACGTGAGATTCAGCT ?
[A] YES

----------
- Test system: PPARg DBDmut IVT, anti-PPARg (DBD mutation: PPARg1 K132A/R137A, NR concentration 270 nM)
- assay_text: PBM binding z-score (relative to random genomic background probes); higher = stronger binding; sequences stand for … in GC…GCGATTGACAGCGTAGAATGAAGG
Provide the reported PBM binding z-score of each item.

Known results for sequences:
# monomer_sequence, value_measured
rows = [
    ("CATACTGGGTCAGCTAGGCCAGAGTAGGGACGGC", 0.266),
    ("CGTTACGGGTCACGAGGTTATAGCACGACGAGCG", 0.539),
    ("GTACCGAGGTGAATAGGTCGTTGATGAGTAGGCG", -0.0941),
    ("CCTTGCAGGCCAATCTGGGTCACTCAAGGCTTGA", -0.339),
    ("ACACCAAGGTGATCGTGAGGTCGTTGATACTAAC", 0.153),
    ("TAGTCTAGGTCATTCAGGGGCCAGTATAGAAAGC", 1.74),
]

Answer for every listed entry: what is its PBM binding z-score? The entries follow.
1. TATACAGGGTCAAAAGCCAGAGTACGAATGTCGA
2. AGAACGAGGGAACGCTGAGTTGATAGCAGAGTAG
3. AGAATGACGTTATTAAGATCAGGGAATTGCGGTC
4. CCTTACGGGTCAAGGTTCTAGCACGGGTGGTACG
5. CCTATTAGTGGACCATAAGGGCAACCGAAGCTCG

[A]
1.55
-0.171
0.222
-0.395
-0.555

Required: PBM binding z-score, one value per sequence below.
1. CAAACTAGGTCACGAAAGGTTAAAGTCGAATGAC
2. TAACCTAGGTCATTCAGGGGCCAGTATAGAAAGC
3. ATACCAAGGTGATCGTGAGGTCGTTGGTACTAAC
4. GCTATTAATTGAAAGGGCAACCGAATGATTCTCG
5. ACAGACAGGTGTGTGAAGGTAACTCAGCTGGACG
6. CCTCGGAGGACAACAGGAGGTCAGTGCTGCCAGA
7. ATATGTAAGTTATCGGGTCATTCAGTTTGCGCAT

[A]
1.97
0.744
-0.0791
-0.0832
-0.168
-1.78
1.8

----------
- Tested on: THRa homodimer (NR concentration 90 nM)
- assay_text: PBM binding z-score (relative to random genomic background probes); higher = stronger binding; sequences stand for … in GC…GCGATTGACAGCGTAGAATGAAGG
Record form. Attribute: PBM binding z-score. Fill in for each entry.
Numbers only.

# monomer_sequence, PBM binding z-score
rows = [
    ("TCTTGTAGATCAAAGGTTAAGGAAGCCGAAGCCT", -0.169),
    ("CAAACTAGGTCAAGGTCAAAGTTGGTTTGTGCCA", 3.85),
    ("CCTACTTGGCCAAAAAGGTCATTGATGCCGATAA", 1.06),
    ("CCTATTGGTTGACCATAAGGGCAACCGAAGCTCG", 0.504),
    ("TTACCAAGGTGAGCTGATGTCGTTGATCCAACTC", 0.0669),
    ("GCTAGTTGGTCAGTAACAGGTCACACACCGGTCG", 1.06),
    ("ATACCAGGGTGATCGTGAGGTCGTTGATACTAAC", 2.62),
    ("ACGAGTTGGTCAGCTGAGGTCACACACAATTCGG", 4.97),
]

For each of the sequences below, state PBM binding z-score.
1. CGTCCAAGGTCAGAGGTCAGTGAAGAGATGACGG
2. CCGACTCGGGCAGAAAGGTTACCATACCATCCGG

[A]
[2.42, -0.699]

For every listed record, write down its PBM binding z-score.
1. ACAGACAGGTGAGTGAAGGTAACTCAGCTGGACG
2. CCAGACAGGTGAAAGCTAACTCAGTCTGGTACGC

[A]
1: -0.394; 2: -0.832
